Tested on: NCI-H460 lung
Procedure summary: NCI-60 one-dose screen, 48 h
Condition notes: 10 µM unless noted
Compounds without any hit were thinned out: in the full panel of roughly 83,000, 20% have a hit. Active and inactive are the calls of the source. Rule for the calls: active = growth percent below 10; inactive = the rest.
The reply should name one outcome from YES = active, NO = inactive

Query: Assay result, entry OCCNc1nc(Nc2ccc(C3=NN(c4cc(Cl)cc(Cl)c4)C(c4ccc(C(F)(F)F)cc4)C3)cc2)nc(N2CCOCC2)n1 (configuration not stated) — outcome?
Response: NO

Query: Which outcome did this test record for the compound "CCOc1ccccc1CN1CCc2nc3cc(C(C)(C)C)[nH]n3c(=O)c2C1" ?
Response: NO

Query: What did this assay record as the result for CCN1C(=O)N(CC)C2Nn3c(s/c(=C\c4ccccc4F)c3=O)=NC21 (configuration not stated) ?
Response: NO

Query: Per the records of this test, what outcome belongs to "Cc1ccc2sc3c(NCCCNCCO)nc4ccccc4c3c(=O)c2c1" ?
Response: YES

Query: Identify the outcome logged in this assay for the compound shown: "O=C1/C=C/[C@@H](O)[C@@H]2C[C@@H](O)C[C@H]2/C=C/CCCCO1"
Response: YES

Query: Please let me know the test result on file for "CCOc1ccc(-c2nonc2NC(=O)c2cccc(C)c2)cc1OCC" .
Response: NO

Query: Hello, I am checking results. What call was entered for "O=c1oc2ccc(Cl)cc2c(=O)n1-c1ccc(F)cc1F" ?
Response: YES

Query: Tell me the assay call for "COc1ccc(C2=C(c3cccc(OC)c3)C(=O)c3ccc(C)nc3C2=O)cc1" please.
Response: NO

Query: // outcome(item) with item = "Cc1ccc2[nH]c(=O)cc(-n3nncc3Cn3c4ccccc4c4ccccc43)c2c1"
Response: NO

Query: Per the assay record, what outcome was assigned to "COc1cc(/C=C2\Oc3cc(OCCCN4CCCC4)ccc3C2=O)cc(OC)c1" ?
Response: YES

Query: Recorded call for "C#CCn1cc(C=C2C(=O)N(C)C(=O)N(C)C2=O)c2cc(Cl)ccc21" ?
Response: NO

Query: Returns: the outcome recorded for "O=C(Nc1ccc(Cl)cc1F)c1cc(Br)ccc1O" in this assay.
Response: YES

Query: Entry CCCN1C(=O)N(CCC)C2C1NN=c1s/c(=C3\C(=O)N(C(C)C)c4ccccc43)c(=O)n12 (configuration not stated) : call = ?
Response: NO

Query: Which outcome did this test record for the compound COc1ccc(C2C3=C(COC3=O)N(CCO)c3cc4c(cc32)CCC4)cc1 (configuration not stated) ?
Response: NO

Query: What did the test return for "O=C(NC1CCN(Cc2ccccc2)CC1)c1cc2nc(-c3ccc(Cl)s3)cc(C(F)(F)F)n2n1" ?
Response: NO

Query: Tell me the assay call for COc1ccc(C2c3ccc4ccccc4c3Oc3ncn(CCCn4ccnc4)c(=N)c32)cc1OC (configuration not stated) please.
Response: NO

Query: Record request — test call for "COc1cc2nc(-c3cnc(N(C)C)nc3)nc(NC3CCN(Cc4ccccc4)CC3)c2cc1OC"
Response: YES
